# measurementDescription: Clearance in Wistar-Han rat hepatocytes at 1 uM measured for 2 to 90 mins by LC-MS/MS
# Format: ADME, cell-based, Hepatocyte
# measurementParameters: Wistar-Han, time 2-90 min
Here, each record is paired with measured CLhep predicted at 1 µM data.
The response must be a number in mL/min/kg with no trailing unit.

Below: 3 molecules and their reported CLhep predicted at 1 µM.
COc1cc(F)ccc1-c1nc(Nc2cc(F)cc(CS(=O)(CCCO)=NC#N)c2)ncc1F (stereo not given) ... 58.3
COc1cc(CS(C)(=N)=O)cc(Nc2ncc(F)c(-c3ccc(F)cc3OC)n2)c1 (stereo not given) ... 38.3
COc1cc(F)ccc1-c1nc(Nc2cc(F)c(F)c(CS(C)(=N)=O)c2)ncc1F (stereo not given) ... 41.7

Please find the next molecule below.
Find the recorded CLhep predicted at 1 µM belonging to COc1cc(F)ccc1-c1nc(Nc2cc(F)cc(CS(C)(=N)=N)c2)ncc1F and report it.
35

----------
# measurementDescription: Half life in Wistar-Han rat blood at 0.3 to 0.5 mg/kg, iv measured upto 24 hrs by HPLC with LC-MS/MS
# Format: ADME, organism-based
# measurementParameters: dose 0.3-0.5 mg/kg
Here the recorded half-life is given for each entry.
Answer shape: numeric part, then the unit.

Can you share its half-life? I mean this compound: COc1cc(F)ccc1-c1nc(Nc2cc(F)cc(CS(C)(=N)=N)c2)ncc1F
36 min

half-life for COc1cc(F)ccc1-c1nc(Nc2cc(F)cc(CS(C)(=N)=O)c2)ncc1F (stereo in doubt) ?
60 min

----------
Papp A→B at 2 h, 2 µM listing for selected compounds.
# measurementDescription: Apparent permeability of the compound across apical side to basolateral side in human CaCo-2 cells at 2 uM incubated for 2 hrs
# Assay type: ADME, cell-based
API: value field is a number in ×10⁻⁶ cm/s; no unit string.

Given the entry COc1cc(F)ccc1-c1nc(Nc2cncc(CS(C)(=N)=O)c2)ncc1F (stereo not given) , report its measured Papp A→B at 2 h, 2 µM.
2.3

Item COc1cc(F)ccc1-c1cc(Nc2cc(CS(C)(=N)=O)ccn2)ncn1 (stereo not given) has what recorded Papp A→B at 2 h, 2 µM?
2.6

----------
# measurementDescription: Clearance in Wistar-Han rat hepatocytes at 1 uM measured for 2 to 90 mins by LC-MS/MS
# Type: ADME, cell-based, Hepatocyte
# measurementParameters: Wistar-Han, time 2-90 min
Define the label as Criterion met when CLhep predicted at 1 µM is strictly less than 20 mL/min/kg and as Criterion not met in all remaining cases.

Previously resolved entries follow.
COc1cc(F)ccc1-c1nc(Nc2cc(F)c(F)c(CS(C)(=O)=NC#N)c2)ncc1F (stereo unspecified) ... Criterion not met
COc1cc(F)ccc1-c1nc(Nc2cc(F)cc(CS(=N)(=O)CCCN)c2)ncc1F (stereo unspecified) ... Criterion met

CLhep predicted at 1 µM strictly < 20 mL/min/kg for this compound? COc1cc(F)ccc1-c1ncnc(Nc2cccc(CS(C)(=N)=O)c2)n1 (stereo unspecified)
Criterion met

Report whether reported CLhep predicted at 1 µM is lower than 20 mL/min/kg (strictly) for COc1cc(F)ccc1-c1nc(Nc2cc(F)cc(CS(C)(=N)=O)c2)ncc1F (stereo in doubt; 9)
Criterion not met

Does this compound meet the criterion CLhep predicted at 1 µM < 20 mL/min/kg? COc1cc(F)ccc1-c1nc(Nc2cncc(CS(C)(=N)=O)c2)ncc1F (stereo unspecified)
Criterion met

Dear reviewer, please state whether COc1cc(F)ccc1-c1nc(Nc2cc(F)cc(CN)c2)ncc1F has CLhep predicted at 1 µM strictly beneath 20 mL/min/kg.
Criterion not met
